The reported measurements were obtained from ChEMBL document CHEMBL4038313.

# experiment.summary: Cytotoxicity against human PHA-stimulated PBMC assessed as cell viability by tetrazolium dye assay
# Assay type: cell-based

- compound: "C[C@H](Cn1cnc2c(N)ncnc21)OCP(=O)(O)O [TENOFOVIR ANHYDROUS]"
  value.prefix: ">"
  CC50 (µM): 25
- compound: "CCCCCOC(=O)C[C@H](NP(=O)(CO[C@@H](CF)Cn1cnc2c(=O)[nH]c(N)nc21)Oc1ccccc1)C(=O)OCCCCC (some centres undefined)"
  value.prefix: "="
  CC50 (µM): 9.31
- compound: "CCCCCOC(=O)C[C@H](NP(=O)(CO[C@H](CF)Cn1cnc2c(=O)[nH]c(N)nc21)Oc1ccccc1)C(=O)OCCCCC (some centres undefined)"
  value.prefix: "="
  CC50 (µM): 11.2
- compound: "CCCCCOC(=O)C[C@H](NP(=O)(CO[C@H](CF)Cn1cnc2c(N)ncnc21)Oc1ccccc1)C(=O)OCCCCC (some centres undefined)"
  value.prefix: "="
  CC50 (µM): 2.48

---

# experiment.summary: Cytotoxic activity against HEL cells assessed as reduction in cell proliferation after 3 days by coulter counting method
# Type: cell-based
# particulars: human
hey, just use T if measured CC50 at 72 h is less than 30 µM, otherwise F

- compound: "O=c1[nH]c(=O)n([C@H]2C[C@H](O)[C@@H](CO)O2)cc1/C=C/Br"
  group: "F"
- compound: "CCCCCOC(=O)C[C@H](NP(=O)(CO[C@H](CF)Cn1ccc(N)nc1=O)Oc1ccccc1)C(=O)OCCCCC (stereo partly specified)"
  group: "F"
- compound: "Nc1nc2c(ncn2COC(CO)CO)c(=O)[nH]1"
  group: "F"
- compound: "Nc1nc(O)c2ncn(C[C@@H](CF)OCP(=O)(O)O)c2n1"
  group: "F"
- compound: "CCCCCOC(=O)C[C@H](NP(=O)(CO[C@H](CF)Cn1cnc2c(N)ncnc21)Oc1ccccc1)C(=O)OCCCCC (stereo partly specified)"
  group: "T"
- compound: "CCCCCOC(=O)C[C@H](NP(=O)(CO[C@@H](CF)Cn1cnc2c(N)ncnc21)Oc1ccccc1)C(=O)OCCCCC (stereo partly specified)"
  group: "T"
- compound: "CCCCCOC(=O)C[C@H](NP(=O)(CO[C@H](CF)Cn1cnc2c(=O)[nH]c(N)nc21)Oc1ccccc1)C(=O)OCCCCC (stereo partly specified)"
  group: "T"
- compound: "Nc1nc2c(ncn2COCCO)c(=O)[nH]1"
  group: "F"
- compound: "Nc1ccn(C[C@@H](CO)OCP(=O)(O)O)c(=O)n1"
  group: "F"
- compound: "Nc1ccn(C[C@@H](CF)OCP(=O)(O)O)c(=O)n1"
  group: "F"
- compound: "CCCCCOC(=O)C[C@H](NP(=O)(CO[C@@H](CF)Cn1cnc2c(=O)[nH]c(N)nc21)Oc1ccccc1)C(=O)OCCCCC (stereo partly specified)"
  group: "T"

---

# Test system: Human betaherpesvirus 5
# experiment.summary: Antiviral activity against Human cytomegalovirus AD169 infected in HEL cells assessed as inhibition of virus-induced cytopathic effect
# Type: functional, cell-based
# particulars: Human betaherpesvirus 5, AD169, HEL
Entries annotated with measured EC50
value.kind: EC50

- molecule: "Nc1nc(O)c2ncn(C[C@@H](CF)OCP(=O)(O)O)c2n1"
  observed.value: "127 µM"
- molecule: "CCCCCOC(=O)C[C@H](NP(=O)(CO[C@@H](CF)Cn1cc(C)c(=O)[nH]c1=O)Oc1ccccc1)C(=O)OCCCCC (stereo not given in full)"
  observed.value: "> 31.9 µM"
- molecule: "CCCCCOC(=O)C[C@H](NP(=O)(CO[C@H](CF)Cn1cc(C)c(=O)[nH]c1=O)Oc1ccccc1)C(=O)OCCCCC (stereo not given in full)"
  observed.value: "> 31.9 µM"
- molecule: "CCCCCOC(=O)C[C@H](NP(=O)(CO[C@@H](CF)Cn1cnc2c(N)ncnc21)Oc1ccccc1)C(=O)OCCCCC (stereo not given in full)"
  observed.value: "> 31.4 µM"
- molecule: "CCCCCOC(=O)C[C@H](NP(=O)(CO[C@@H](CF)Cn1ccc(N)nc1=O)Oc1ccccc1)C(=O)OCCCCC (stereo not given in full)"
  observed.value: "> 32.6 µM"

---

Below, each of the compounds is paired with its reported selectivity ratio value.
# experiment.summary: Selectivity index, ratio of CC50 for human TZM-bl cells to EC50 for CXCR4-tropic HIV-1 NL4-3 infected in human TZM-bl cells
# Assay type: toxicity, cell-based
# particulars: read-out: Ratio CC50/EC50
value.kind: selectivity ratio

- compound: "Cc1cn(C[C@H](CF)OCP(=O)(O)O)c(=O)[nH]c1=O"
  value.kind: "selectivity ratio"
  observed.value: "> 2"
- compound: "CCCCCOC(=O)C[C@H](NP(=O)(CO[C@H](CF)Cn1cc(C)c(=O)[nH]c1=O)Oc1ccccc1)C(=O)OCCCCC (stereo partly drawn)"
  value.kind: "selectivity ratio"
  observed.value: "< 1"
- compound: "Nc1ncnc2c1ncn2C[C@@H](CF)OCP(=O)(O)O"
  value.kind: "selectivity ratio"
  observed.value: "> 17"

---

# experiment.summary: Cytotoxic activity against HEL cells assessed as alteration of cell morphology after 3 days by microscopic method
# Type: cell-based
# particulars: human
Quick list: MCC at 72 h per entry.

- compound: "CCCCCOC(=O)C[C@H](NP(=O)(CO[C@@H](CF)Cn1cnc2c(=O)[nH]c(N)nc21)Oc1ccccc1)C(=O)OCCCCC (stereo not given in full)"
  u: "µM"
  value.prefix: "="
  MCC at 72 h: 153
- compound: "Nc1nc(O)c2ncn(C[C@H](CF)OCP(=O)(O)O)c2n1"
  u: "µM"
  value.prefix: ">"
  MCC at 72 h: 311
- compound: "O=c1[nH]c(=O)n([C@H]2C[C@H](O)[C@@H](CO)O2)cc1/C=C/Br [BRIVUDINE]"
  u: "µM"
  value.prefix: ">"
  MCC at 72 h: 300
- compound: "CCCCCOC(=O)C[C@H](NP(=O)(CO[C@H](CF)Cn1cnc2c(N)ncnc21)Oc1ccccc1)C(=O)OCCCCC (stereo not given in full)"
  u: "µM"
  value.prefix: "="
  MCC at 72 h: 31.4
- compound: "CCCCCOC(=O)C[C@H](NP(=O)(CO[C@@H](CF)Cn1ccc(N)nc1=O)Oc1ccccc1)C(=O)OCCCCC (stereo not given in full)"
  u: "µM"
  value.prefix: "="
  MCC at 72 h: 32.6
- compound: "Nc1ccn(C[C@@H](CF)OCP(=O)(O)O)c(=O)n1"
  u: "µM"
  value.prefix: ">"
  MCC at 72 h: 356
- compound: "CCCCCOC(=O)C[C@H](NP(=O)(CO[C@H](CF)Cn1cc(C)c(=O)[nH]c1=O)Oc1ccccc1)C(=O)OCCCCC (stereo not given in full)"
  u: "µM"
  value.prefix: "="
  MCC at 72 h: 159
- compound: "CCCCCOC(=O)C[C@H](NP(=O)(CO[C@H](CF)Cn1cnc2c(=O)[nH]c(N)nc21)Oc1ccccc1)C(=O)OCCCCC (stereo not given in full)"
  u: "µM"
  value.prefix: "="
  MCC at 72 h: 153
- compound: "CCCCCOC(=O)C[C@H](NP(=O)(CO[C@@H](CF)Cn1cnc2c(N)ncnc21)Oc1ccccc1)C(=O)OCCCCC (stereo not given in full)"
  u: "µM"
  value.prefix: "="
  MCC at 72 h: 157
- compound: "CCCCCOC(=O)C[C@H](NP(=O)(CO[C@H](CF)Cn1ccc(N)nc1=O)Oc1ccccc1)C(=O)OCCCCC (stereo not given in full)"
  u: "µM"
  value.prefix: "="
  MCC at 72 h: 163

---

# experiment.summary: Selectivity index, ratio of CC50 for human TZM-bl cells to EC50 for CCR5 tropic HIV1 BaL infected in human TZM-bl cells
# Type: toxicity, cell-based
# particulars: read-out: Ratio CC50/EC50
Measured selectivity ratio of individual entries

- compound: "Cc1cn(C[C@H](CF)OCP(=O)(O)O)c(=O)[nH]c1=O"
  value.prefix: "="
  selectivity ratio: 1
- compound: "Cc1cn(C[C@@H](CF)OCP(=O)(O)O)c(=O)[nH]c1=O"
  value.prefix: "="
  selectivity ratio: 1
- compound: "CCCCCOC(=O)C[C@H](NP(=O)(CO[C@@H](CF)Cn1cnc2c(=O)[nH]c(N)nc21)Oc1ccccc1)C(=O)OCCCCC (some centres undefined)"
  value.prefix: ">"
  selectivity ratio: 1670
- compound: "Nc1nc(O)c2ncn(C[C@H](CF)OCP(=O)(O)O)c2n1"
  value.prefix: ">"
  selectivity ratio: 15
- compound: "CCCCCOC(=O)C[C@H](NP(=O)(CO[C@@H](CF)Cn1cnc2c(N)ncnc21)Oc1ccccc1)C(=O)OCCCCC (some centres undefined)"
  value.prefix: "="
  selectivity ratio: 342
- compound: "CCCCCOC(=O)C[C@H](NP(=O)(CO[C@@H](CF)Cn1cc(C)c(=O)[nH]c1=O)Oc1ccccc1)C(=O)OCCCCC (some centres undefined)"
  value.prefix: "="
  selectivity ratio: 1
- compound: "Nc1nc(O)c2ncn(C[C@@H](CF)OCP(=O)(O)O)c2n1"
  value.prefix: ">"
  selectivity ratio: 26
- compound: "Nc1ncnc2c1ncn2C[C@H](CF)OCP(=O)(O)O"
  value.prefix: ">"
  selectivity ratio: 3
- compound: "C[C@H](Cn1cnc2c(N)ncnc21)OCP(=O)(O)O [TENOFOVIR ANHYDROUS]"
  value.prefix: ">"
  selectivity ratio: 14
